- Assay Explanation: Bioavailability in mouse (nude) (dose 30 mg/kg p.o.)
- Format: ADME, organism-based
- Experimental Conditions: in vivo, po
bioavailability listing for selected molecules.
Respond with the bare value in %.

[[record]]
molecule = "Nc1nc(Nc2ccc(S(N)(=O)=O)cc2)nn1C(=O)c1c(F)cccc1F [JNJ-7706621]"
val = 2


// below: bioavailability requested for another molecule
Input: What value of bioavailability has been recorded for this entry: Cc1ccc(F)c(C(=O)n2nc(Nc3ccc(S(N)(=O)=O)cc3)nc2C)c1F
Output: 20.6

---

- Assay Explanation: Area under concentration time curve after 10 mg/kg of oral dose in dog
- Format: ADME, organism-based, Canis lupus familiaris
- Parameters: dose 10 mg/kg, route oral
- Experimental Conditions: in vivo
Measurement Name: AUC
Put your answer as a value accompanied by its unit after it.

Input: What value of AUC has been recorded for this entry: Nc1nc(Nc2ccc(S(N)(=O)=O)cc2)nn1C(=O)c1c(F)cccc1F
Output: 15.5 µM·h
